# System: MS2 coat protein
# Test details: apparent KD of MS2 coat protein; designed switch direction (-1 OFF switch, 1 ON switch): -1; higher = weaker reporter binding
# Measurement setup: input ligand: FMN 200 uM
Readout type: apparent KD of MS2 coat protein (µM)
Give bare numbers, in µM.

query: For the sequence AAGAAAGGUGACAUGGGUGACAUGAGGAUCACCCAUGUUACAAGCUUGUUGCUCGUCUUAUAAUUAACCCAUGUCAU [LRO Sensor-off var1-19 mod of Stov1-13-A1 by Brourd] (Eterna round: R97, puzzle: Sensor, turn-off variant 1) , what apparent KD of MS2 coat protein is on record?
result: 0.0553

query: Given CAGUACUGAGGAUAUACAUGAGGAUCACCCAUGUGCUCCAGCUAGGAAACUAGCAAAAGUAGAAGGCAGUACUG [828 mod 2 m8] (Eterna round: R97, puzzle: Exclusion 3) , state its recorded apparent KD of MS2 coat protein.
result: 3.96

query: Record request: apparent KD of MS2 coat protein value, item GCUGGUGUGCAGGAUAUUUAAUUGCAAAUAAAUAAAGAAGGGCAUACAUGAGGAUCACCCAUGUCGUCGUUGCG [Eternabot (L1) Solution 98] (Eterna round: R97, puzzle: Exclusion 6)
result: 0.0392

query: Please give the measured apparent KD of MS2 coat protein for this sequence: ACAAGCUUGUAAUGAUAGAACAUGAGGAUCACCCAUGUAAAUGGAAGAACCAAUUGGAUAAGAUAAACUCGUCUUAU [JR_STOV1_Sub003] (Eterna round: R97, puzzle: Sensor, turn-off variant 1)
result: 0.114

query: For the sequence shown here, CGACUGGUAGGAUAUACAUGAGGAUCACCCAUGUACCUGACAUGAGAAUAAACCAUCGGUAGAAGGGCUAAGUC [Eternabot (L2) Solution 79] (Eterna round: R97, puzzle: Exclusion 3) , give the reported apparent KD of MS2 coat protein.
result: 0.0218

Hello, I would appreciate it if you could give apparent KD of MS2 coat protein for each entry below.
1. UCACACGGAGGAUAUACCGUCGGUCAUUGGUGUGACGUAUCACAUGAGGAUCACCCAUGUAGAAGGCCGUGCUU [Eternabot (L2) Solution 14] (Eterna round: R97, puzzle: Exclusion 2)
2. UUUUACAAGCUAAGAUCCUACAUGAGGAUCACCCAUGUGGUCCGGUGACGUGAGUCACCGGACUUAGCUCGUCUUGA [salish99_S_TOV1_R5_085] (Eterna round: R97, puzzle: Sensor, turn-off variant 1)
3. CCACUGUCAGGAUAUCGUGCAUAACGUUUACAAUUUAUGUGCGAGAAGGGACAUGAGGAUCACCCAUGUAAACG [Omei Ex4 A28PK3] (Eterna round: R97, puzzle: Exclusion 4)
4. UUCCUCACUUCUUUGUCUCACAUGAGGAUCACCCAUGUAAUAUAGGAUAUGCUUAGUAUUUUUAUGCAGAAGGAUAUUAGUUUU [JR_ExcNG3_Sub085] (Eterna round: R96, puzzle: Exclusion NG 3)

result:
0.394
0.0389
0.227
0.169

Source listed as the supplement of paper PMC9170038.
